This listing pairs compounds with measured Binding Activity on ET Receptor (R. act.) ETB*1.
Molecular target: endothelin receptor B (ETB) (Bos taurus, UniProt P28088)
Construct: A membrane fraction prepared from the bovine brain; from tissue; host or cells: bovine brain membrane fraction
Sequence (P28088 27-441): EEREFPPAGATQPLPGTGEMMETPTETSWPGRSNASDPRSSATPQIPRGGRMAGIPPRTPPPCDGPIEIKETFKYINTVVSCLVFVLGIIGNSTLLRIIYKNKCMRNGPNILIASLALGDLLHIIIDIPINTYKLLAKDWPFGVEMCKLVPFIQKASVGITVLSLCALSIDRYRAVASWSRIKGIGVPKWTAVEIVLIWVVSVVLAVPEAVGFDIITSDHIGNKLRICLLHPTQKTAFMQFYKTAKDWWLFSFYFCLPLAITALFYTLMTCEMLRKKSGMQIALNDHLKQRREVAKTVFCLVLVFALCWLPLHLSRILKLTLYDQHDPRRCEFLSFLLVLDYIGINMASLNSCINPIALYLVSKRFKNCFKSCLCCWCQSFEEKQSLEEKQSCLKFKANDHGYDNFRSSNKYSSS
Experiment: Assay of affinity for receptor (2): binding activity on ETB receptor *1, 125I-labeled endothelin-1, bovine brain membrane fraction
Conditions: specific activity, taking the binding activity of the compound of Example 8 on receptor B as 100, 25°C, 1 hour
Non-standard residues stand in square brackets, D forms with d. Residues, ends and D or L forms follow the SMILES beside them. *: point of attachment. 1Nal = N[C@@H](Cc1cccc2ccccc12)C(=O)O; Hyp = O=C(O)[C@@H]1C[C@@H](O)CN1; d2Thi = N[C@H](Cc1cccs1)C(=O)O; Pip = O=C(O)[C@@H]1CCCCN1; Aze = O=C(O)[C@@H]1CCN1; For = O=C*
Note: the reply should be a number with no unit written.

| compound | recordedValue |
| --- | --- |
| CC(C)C[C@@H]1NC(=O)[C@@H](CC(C)C)NC(=O)[C@H](CC(=O)O)NC(=O)[C@@H]2CCN2C(=O)[C@@H](CC(=O)O)NC(=O)[C@@H](Cc2c[nH]c3ccccc23)NC1=O [Example 25, Cyclo[-D-Asp-Azc-Asp-D-Leu-Leu-D-Trp-]] (cyclo([Aze]D[dL]L[dW][dD])) | 25 |
| CC(C)C[C@@H]1NC(=O)[C@@H](C(C)C)NC(=O)[C@H](CC(=O)O)NC(=O)[C@H](Cc2c[nH]c3ccccc23)NC(=O)[C@@H](CC(=O)O)NC(=O)[C@@H](Cc2c[nH]c3ccccc23)NC1=O [Example 52, Cyclo[-D-Asp-Trp-Asp-D-Val-Leu-D-Trp-]] (cyclo(D[dV]L[dW][dD]W)) | 240 |
| CC(C)C[C@@H]1NC(=O)[C@@H](Cc2ccccc2)NC(=O)[C@H](CC(=O)O)NC(=O)[C@H](Cc2c[nH]c3ccccc23)NC(=O)[C@@H](CC(=O)O)NC(=O)[C@@H](Cc2c[nH]c3ccccc23)NC1=O [Example 60, Cyclo[-D-Asp-Trp-Asp-D-Phe-Leu-D-Trp-]] (cyclo(D[dF]L[dW][dD]W)) | 210 |
| CC(C)C[C@@H]1NC(=O)[C@@H](CC(C)C)NC(=O)[C@H](CC(=O)O)NC(=O)[C@H](Cc2cccc3ccccc23)NC(=O)[C@@H](CC(=O)O)NC(=O)[C@@H](Cc2c[nH]c3ccccc23)NC1=O [Example 23] (cyclo([1Nal]D[dL]L[dW][dD])) | 11 |
| CC(C)C[C@@H]1NC(=O)[C@@H](CC(C)C)NC(=O)[C@H](CC(=O)O)NC(=O)[C@H](Cc2cn(C=O)c3ccccc23)NC(=O)[C@@H](CC(=O)O)NC(=O)[C@@H](Cc2c[nH]c3ccccc23)NC1=O [Example 22] (cyclo(D[dL]L[dW][dD]W(For))) | 6.7 |
| CC(C)C[C@@H]1NC(=O)[C@@H](CC(C)C)NC(=O)[C@H](CCC(=O)O)NC(=O)[C@H](Cc2c[nH]c3ccccc23)NC(=O)[C@@H](CC(=O)O)NC(=O)[C@@H](Cc2c[nH]c3ccccc23)NC1=O [Example 34, Cyclo[-D-Asp-Trp-Glu-D-Leu-Leu-D-Trp-]] (cyclo(E[dL]L[dW][dD]W)) | 77 |

// query Which Binding Activity on ET Receptor (R. act.) ETB*1 is listed for CC(C)C[C@@H]1NC(=O)[C@@H](CC(C)C)NC(=O)[C@H](CC(=O)O)NC(=O)[C@H](CC(=O)O)NC(=O)[C@@H](CC(=O)O)NC(=O)[C@@H](Cc2c[nH]c3ccccc23)NC1=O [Example 16, Cyclo[-D-Asp-Asp-Asp-D-Leu-Leu-D-Trp-]] (cyclo(DD[dL]L[dW][dD])) ?
// result 14

// query Which Binding Activity on ET Receptor (R. act.) ETB*1 is listed for CC(C)C[C@@H]1NC(=O)[C@@H](CC(C)C)NC(=O)[C@H](CC(=O)O)NC(=O)[C@@H]2CCCN2C(=O)[C@@H](CC(=O)O)NC(=O)[C@@H](Cc2c[nH]c3ccccc23)NC1=O [Example 9, cyclo[-D-Asp-Pro-Asp-D-Leu-Leu-D-Trp-]] (cyclo(D[dL]L[dW][dD]P)) ?
// result 140

// query Which Binding Activity on ET Receptor (R. act.) ETB*1 is listed for CC(C)C[C@@H]1NC(=O)[C@@H](Cc2cccs2)NC(=O)[C@H](CC(=O)O)NC(=O)[C@H](Cc2c[nH]c3ccccc23)NC(=O)[C@@H](CC(=O)O)NC(=O)[C@@H](Cc2c[nH]c3ccccc23)NC1=O [Example 50, Cyclo[-D-Asp-Trp-Asp-D-Thi-Leu-D-Trp-]] (cyclo(D[d2Thi]L[dW][dD]W)) ?
// result 350

// query Which Binding Activity on ET Receptor (R. act.) ETB*1 is listed for CC(C)C[C@@H]1NC(=O)[C@@H](CC(C)C)NC(=O)[C@H](CC(=O)O)NC(=O)[C@@H]2C[C@@H](O)CN2C(=O)[C@@H](CC(=O)O)NC(=O)[C@@H](Cc2c[nH]c3ccccc23)NC1=O [Example 14, cyclo[-D-Asp-Hyp-Asp-D-Leu-Leu-D-Trp-]] (cyclo(D[dL]L[dW][dD][Hyp])) ?
// result 160

// query Which Binding Activity on ET Receptor (R. act.) ETB*1 is listed for CC(C)C[C@H]1NC(=O)[C@H](CC(=O)O)NC(=O)[C@H](C)NC(=O)[C@@H](CC(=O)O)NC(=O)[C@@H](Cc2c[nH]c3ccccc23)NC(=O)[C@H](Cc2c[nH]c3ccccc23)NC1=O [Example 58, Cyclo[-D-Asp-Ala-Asp-D-Leu-Trp-D-Trp-]] (cyclo(AD[dL]W[dW][dD])) ?
// result 6.7

// query Which Binding Activity on ET Receptor (R. act.) ETB*1 is listed for CC(C)C[C@@H]1NC(=O)[C@@H](CC(C)C)NC(=O)[C@H](CC(=O)O)NC(=O)[C@@H]2CCCCN2C(=O)[C@@H](CC(=O)O)NC(=O)[C@@H](Cc2c[nH]c3ccccc23)NC1=O [Example 26, Cyclo[-D-Asp-Pip-Asp-D-Leu-Leu-D-Trp-]] (cyclo(D[dL]L[dW][dD][Pip])) ?
// result 38

// query Which Binding Activity on ET Receptor (R. act.) ETB*1 is listed for CC(C)C[C@@H]1NC(=O)[C@@H](CC(C)C)NC(=O)[C@H](CC(=O)O)NC(=O)[C@H](Cc2c[nH]c3ccccc23)NC(=O)[C@@H](CC(=O)O)NC(=O)[C@@H](Cc2c[nH]c3ccccc23)NC1=O [Example 8, cyclo[-D-Asp-Trp-Asp-D-Leu-Leu-D-Trp-]] (cyclo(D[dL]L[dW][dD]W)) ?
// result 100
